System: BT-474
Experiment: normalised response (% of control), CellTiter-Glo; higher = more viable cells (100 = DMSO, 0 = benzethonium chloride kill control)
Details: incubation time: 72 h
I'd be grateful if you could share measured normalised response for these entries.
The answer consists of two parts: a number and, after it, its unit.

Bench note: what normalised response did CS(=O)(=O)c1ccc(C(=O)Nc2ccc(Cl)c(-c3ccccn3)c2)c(Cl)c1 [Vismodegib] (100 nM) show?
94.4%

Would you mind telling me what normalised response value was observed for CO[C@H]1C[C@@H]2CC[C@@H](C)[C@@](O)(O2)C(=O)C(=O)N2CCCC[C@H]2C(=O)O[C@H]([C@H](C)C[C@@H]2CC[C@@H](OC(=O)C(C)(CO)CO)[C@H](OC)C2)CC(=O)[C@H](C)/C=C(\C)[C@@H](O)[C@@H](OC)C(=O)[C@H](C)C[C@H](C)/C=C/C=C/C=C/1C [Temsirolimus] (1 nM) ?
90.8%

Query: normalised response; subject: C[C@]1(c2nc3c(C(N)=O)cccc3[nH]2)CCCN1 [Veliparib] (100 nM)
98.3%

Which normalised response value is on record for C=CCNC1=C2C[C@@H](C)C[C@H](OC)[C@H](O)[C@@H](C)/C=C(\C)[C@H](OC(N)=O)[C@@H](OC)/C=C\C=C(/C)C(=O)NC(=CC1=O)C2=O [Tanespimycin] (100 nM) ?
99.3%

What value of normalised response has been reported for the following compound? CC(=O)O[C@]1(C(C)=O)CC[C@H]2[C@@H]3C=C(C)C4=CC(=O)CC[C@]4(C)[C@H]3CC[C@@]21C [Megestrol acetate] (100 nM)
109%

What value of measured normalised response is listed for Nc1ccn([C@@H]2O[C@H](CO)[C@@H](O)[C@@H]2O)c(=O)n1 [Cytarabine] (100 nM) ?
97.3%

What value of normalised response has been recorded for this entry: O=C(c1ccc(C(=O)N2CCC(N3CCCC3)CC2)c(Nc2ccccc2)c1)N1CCC(N2CCCC2)CC1 [UNC1215] (300 nM)
98.3%

###

Test system: MFM-223
Experiment: normalised viability (% of control), CellTiter-Blue; higher = more viable cells (about 100 = DMSO control)
Details: 10 nM; incubation time: 72 h
Field: normalised viability. Provide a value for each of the compounds that follow.
// note: answer is a bare numeric in %

Field: normalised viability (MFM-223). Entry: "COc1cccc2cc(-c3nc([C@H]4CC[C@H](C(=O)O)CC4)n4ncnc(N)c34)[nH]c12"
101

Missing value: normalised viability, MFM-223, entry "OC[C@H]1O[C@@H](n2cnc3c2N=CNC[C@H]3O)C[C@@H]1O" . Fill in?
93.5

Recall the recorded normalised viability for Clc1ccc(C(c2ccccc2Cl)C(Cl)Cl)cc1 (stereo not given) with MFM-223 and state it.
90.3

GET /values?readout=normalised viability&system=MFM-223&item= "C=CC[C@@H]1/C=C(\C)C[C@H](C)C[C@H](OC)[C@H]2O[C@@](O)(C(=O)C(=O)N3CCCC[C@H]3C(=O)O[C@H](/C(C)=C/[C@@H]3CC[C@@H](O)[C@H](OC)C3)[C@H](C)[C@@H](O)CC1=O)[C@H](C)C[C@@H]2OC"
112

Return normalised viability measured with MFM-223 given this compound: "CS(=O)(=O)c1ccc(C(=O)Nc2ccc(Cl)c(-c3ccccn3)c2)c(Cl)c1"
92.4
